Here, each record is paired with measured pIC50 data.
target: human stimulator of interferon genes (STING) (139-379) (Homo sapiens (Human))
Sequence (Q86WV6 139-379): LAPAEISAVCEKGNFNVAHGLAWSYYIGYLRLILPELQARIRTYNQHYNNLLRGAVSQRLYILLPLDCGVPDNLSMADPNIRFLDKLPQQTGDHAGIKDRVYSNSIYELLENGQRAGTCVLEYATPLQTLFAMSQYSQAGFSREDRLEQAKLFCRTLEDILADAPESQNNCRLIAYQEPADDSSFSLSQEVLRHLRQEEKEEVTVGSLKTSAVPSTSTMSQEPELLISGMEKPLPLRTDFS
pIC50: −log10 of the molar value.

[
  {
    "compound": "Cn1nc2cccc3c2c1CCCN(CCCc1ccccc1)C(=O)[C@@H]1C[C@@H](CN1c1ncnc2c1cnn2-c1ccc(F)cc1F)Oc1cccc-3c1 [Example 29]",
    "pIC50": 8.92
  },
  {
    "compound": "C=CCN1CCCc2c3c(cccc3nn2C)-c2cccc(c2)O[C@H]2C[C@@H](C1=O)N(c1ncnc3c1cnn3-c1ccc(F)cc1F)C2 [Example 20]",
    "pIC50": 8.72
  },
  {
    "compound": "Cn1nc2cccc3c2c1CCCNC(=O)[C@@H]1C[C@@H](CN1c1ncnc2c1cnn2-c1ccc(F)cc1F)Oc1ccnc-3c1 [Example 10]",
    "pIC50": 8.29
  }
]
